test system: Hepatitis C virus; assay: Antiviral activity against Hepatitis C virus infected in human HUH7 cells by replicon assay; assay type: functional, organism-based, Hepacivirus hominis; settings: Huh-7
pEC50: −log10 of the molar value.
property-label: pEC50

molecule="CN(C)CC1Cn2c(c(C3CCCCC3)c3ccc(C(=O)O)cc32)-c2ccccc2N1C (racemic)" measured_on="Hepatitis C virus" observed_measurement=6.80
molecule=CN(C)CCN1Cc2ccccc2-c2c(C3CCCCC3)c3ccc(C(=O)O)cc3n2CC1=O measured_on="Hepatitis C virus" observed_measurement=6.59
molecule=CCN(CC)C1CCN(C(=O)Cn2c(-c3ccc(Cl)cc3)c(C3CCCCC3)c3ccc(C(=O)O)cc32)CC1 measured_on="Hepatitis C virus" observed_measurement=6.74

* * *

test: Inhibition of HCV NS5B Cdelta21 in presence of heterogenic template RNA; parameters: species or system Hepacivirus hominis
pIC50: −log10 of the molar value.
property-label: pIC50

compound="CN(C)CC1Cn2c(c(C3CCCCC3)c3ccc(C(=O)O)cc32)-c2ccccc2CN1C (racemic)" observed_measurement=7.46

P. CN(C)CCN1CCn2c(c(C3CCCCC3)c3ccc(C(=O)O)cc32)-c2ccccc2C1
Q. COc1ccc2c(c1)CN(C)CCn1c-2c(C2CCCCC2)c2ccc(C(=O)O)cc21
Smaller pIC50 value? Options are P and Q Mark your selection by writing its label.
Q
(Q: 7.26, P: 7.57)

1. CN(C)CC(=O)N1CCn2c(c(C3CCCCC3)c3ccc(C(=O)O)cc32)-c2ccc(F)cc2C1
2. COc1ccc2c(c1)CN(CCN(C)C)CCn1c-2c(C2CCCCC2)c2ccc(C(=O)O)cc21
Sort 1 and 2 by pIC50 descending and give the first. Mark your selection by writing its label.
2
(2: 7.46, 1: 7.22)
